- assayed-target: UniProtKB P22303
- Sequence (P22303 32-614): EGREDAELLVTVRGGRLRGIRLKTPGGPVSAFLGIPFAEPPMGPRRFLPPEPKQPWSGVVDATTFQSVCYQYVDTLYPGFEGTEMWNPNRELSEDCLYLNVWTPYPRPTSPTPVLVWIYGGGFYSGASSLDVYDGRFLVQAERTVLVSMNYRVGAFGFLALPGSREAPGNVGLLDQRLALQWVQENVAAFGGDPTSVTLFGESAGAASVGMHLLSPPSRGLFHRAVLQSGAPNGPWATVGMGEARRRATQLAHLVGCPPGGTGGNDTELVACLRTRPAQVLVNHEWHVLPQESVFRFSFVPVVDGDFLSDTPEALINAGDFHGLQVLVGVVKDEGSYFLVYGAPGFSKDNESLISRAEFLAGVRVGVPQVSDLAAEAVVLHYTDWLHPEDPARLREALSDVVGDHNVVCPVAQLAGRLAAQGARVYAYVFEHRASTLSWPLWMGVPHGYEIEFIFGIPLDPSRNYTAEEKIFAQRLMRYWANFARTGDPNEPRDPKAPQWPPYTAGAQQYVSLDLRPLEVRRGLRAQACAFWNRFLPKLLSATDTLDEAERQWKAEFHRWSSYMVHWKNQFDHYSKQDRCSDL
- protocol-description: Ellman's colorimetric assay, inhibition of hAChE
- Assay type: biochemical
- conditions-used: 100 µM; read-out: inhibition of hAChE
attribute-measured: inhibition at 100 µM
Dear colleague, please send the value followed by its unit.

| molecule | assayed-target | inhibition at 100 µM |
| --- | --- | --- |
| CN1c2ccc(OC(=O)NCCCCCCCCCCN3CCOCC3)cc2CN2CCc3ccccc3C21 (centres unmarked) [Compound 19f] | UniProtKB P22303 | 25% |
| CN1c2ccc(OC(=O)NCCCN3CCOCC3)cc2CN2CCc3ccccc3C21 (centres unmarked) [Compound 19b] | UniProtKB P22303 | 13% |

Item CN1c2ccc(OC(=O)NCCCCCCN3CCOCC3)cc2CN2CCc3ccccc3C21 (centres unmarked) [Compound 19d] has what recorded inhibition at 100 µM?
45%

For CN1c2ccc(OC(=O)NCCCCN3CCOCC3)cc2CN2CCc3ccccc3C21 (centres unmarked) [Compound 19c] , what is its reported inhibition at 100 µM?
13%

Which value of inhibition at 100 µM has been reported for CN1c2ccc(OC(=O)NCCN3CCOCC3)cc2CN2CCc3ccccc3C21 (centres unmarked) [Compound 19a] in the records?
17%
